meta.source: patent US20220146526A1

- METHOD: LC/MS of blood plasma sample: number of times of freezing and thawing (Table F)
- Format: physicochemical, human
- EXPERIMENTAL CONTEXT: detection intensity relative to 1 at 2 times, freezing and thawing 10 times
Each entry below lists one item and its recorded Rate of increase or decrease value.
READOUT KIND: Rate of increase or decrease

{"columns": ["COMPOUND", "TEST RESULT"],
 "data": [
  ["CC(C)C[C@H](N)C(=O)O", 1.35],
  ["NC(=O)NCCC[C@H](N)C(=O)O", 1.33],
  ["N[C@@H](CSSC[C@H](N)C(=O)O)C(=O)O", 0.54],
  ["O=C(O)[C@@H]1CC(O)CN1 (some centres unmarked) [4-Hydroxyproline]", 1.34],
  ["CC[C@H](C)[C@H](N)C(=O)O", 1.44],
  ["C[C@H](CCC(=O)O)[C@H]1CC[C@H]2[C@@H]3[C@H](O)C[C@@H]4C[C@H](O)CC[C@]4(C)[C@H]3C[C@H](O)[C@]12C", 3.26],
  ["N[C@@H](Cc1c[nH]cn1)C(=O)O", 1.36],
  ["C[C@H](N)C(=O)O", 1.34],
  ["CN(C)CC(=O)O", 1.37],
  ["CN=C(NC)NCCC[C@H](N)C(=O)O", 1.31],
  ["N[C@@H](CCS)C(=O)O", 1.37]
]}
